Molecular target: human αVβ6 Integrin (Homo sapiens, UniProt P06756+P18564)
Construct: purchased R & D systems 3817-AV
Sequence (P06756 31-992 limits assumed): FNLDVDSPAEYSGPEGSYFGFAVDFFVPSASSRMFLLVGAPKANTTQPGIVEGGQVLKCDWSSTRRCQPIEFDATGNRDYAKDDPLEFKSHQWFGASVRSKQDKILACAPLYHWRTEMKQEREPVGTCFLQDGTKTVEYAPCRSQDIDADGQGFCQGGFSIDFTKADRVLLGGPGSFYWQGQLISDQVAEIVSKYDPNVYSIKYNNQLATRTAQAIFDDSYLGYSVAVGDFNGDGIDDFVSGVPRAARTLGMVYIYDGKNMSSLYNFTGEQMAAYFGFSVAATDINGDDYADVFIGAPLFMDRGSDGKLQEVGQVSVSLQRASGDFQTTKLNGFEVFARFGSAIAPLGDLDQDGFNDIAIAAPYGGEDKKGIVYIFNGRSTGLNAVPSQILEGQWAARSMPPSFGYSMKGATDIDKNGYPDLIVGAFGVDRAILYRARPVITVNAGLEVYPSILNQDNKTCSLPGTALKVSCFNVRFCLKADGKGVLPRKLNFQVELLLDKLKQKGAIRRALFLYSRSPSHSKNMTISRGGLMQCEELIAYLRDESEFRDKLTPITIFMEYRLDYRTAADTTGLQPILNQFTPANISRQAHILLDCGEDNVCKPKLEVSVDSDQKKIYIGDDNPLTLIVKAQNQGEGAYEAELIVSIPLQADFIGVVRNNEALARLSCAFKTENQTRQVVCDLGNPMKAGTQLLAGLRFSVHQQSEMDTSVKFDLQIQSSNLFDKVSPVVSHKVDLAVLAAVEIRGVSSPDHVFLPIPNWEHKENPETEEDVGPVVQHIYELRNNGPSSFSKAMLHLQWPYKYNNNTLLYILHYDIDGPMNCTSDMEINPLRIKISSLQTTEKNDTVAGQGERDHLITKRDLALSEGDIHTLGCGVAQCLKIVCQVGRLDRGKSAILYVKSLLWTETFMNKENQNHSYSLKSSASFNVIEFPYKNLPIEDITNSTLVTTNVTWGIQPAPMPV
Sequence (P18564 22-707 limits assumed): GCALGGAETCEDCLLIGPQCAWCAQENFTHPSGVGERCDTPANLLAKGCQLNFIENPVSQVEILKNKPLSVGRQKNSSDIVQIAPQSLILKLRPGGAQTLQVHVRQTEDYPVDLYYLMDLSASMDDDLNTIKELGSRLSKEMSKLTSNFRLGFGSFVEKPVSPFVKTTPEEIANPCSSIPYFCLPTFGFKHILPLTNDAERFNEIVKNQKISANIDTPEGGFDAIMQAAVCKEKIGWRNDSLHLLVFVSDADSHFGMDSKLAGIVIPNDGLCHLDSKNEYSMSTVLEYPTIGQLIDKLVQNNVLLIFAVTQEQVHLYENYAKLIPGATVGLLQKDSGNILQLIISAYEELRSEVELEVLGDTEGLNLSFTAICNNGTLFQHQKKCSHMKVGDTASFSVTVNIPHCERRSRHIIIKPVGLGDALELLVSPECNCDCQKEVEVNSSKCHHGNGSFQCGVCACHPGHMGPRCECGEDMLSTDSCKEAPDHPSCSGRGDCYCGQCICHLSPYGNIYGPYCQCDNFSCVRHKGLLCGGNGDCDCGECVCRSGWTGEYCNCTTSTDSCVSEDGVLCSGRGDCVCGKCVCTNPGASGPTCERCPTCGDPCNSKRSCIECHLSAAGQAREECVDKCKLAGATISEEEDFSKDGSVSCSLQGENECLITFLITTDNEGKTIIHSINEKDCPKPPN
Assay: human αVβ6 HTRF binding assay
pIC50: −log10 of the molar value.
OUTCOME_MEASURE: pIC50

INSERT INTO results (compound, reported_measurement) VALUES
  ('CC(C)(C)c1cc(Br)cc([C@H](CC(=O)O)NC(=O)c2cc(CCc3ccc4c(n3)NCCC4)c[nH]2)c1', 9.20);

I. COc1ccc([C@H](CC(=O)O)NC(=O)c2cc(CCc3ccc4c(n3)NCCC4)c[nH]2)cc1F
II. O=C(O)C[C@H](NC(=O)c1cc(CCc2ccc3c(n2)NCCC3)c[nH]1)c1cnc2ccccc2c1
Data request: Would you let me know which has the greater pIC50 value, I or II ? State your choice using its label.
Data returned: II
(II: 8.96, I: 8.59)
